# experiment-summary: chemical genetic growth profiling, strain panel (AID 1159580);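 further: tested at 20 µM; growth read once vehicle control cultures reached saturation at 30 °C; lower values mean less growth of the strain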
# condition: S. cerevisiae deletion strains, growth OD, locus YBR009C, strain hhf1
The campaign covered roughly 5,500 compounds. About 2,000 (36%) were called active. Not shown: some 18% with an inconclusive outcome. No stated cut-off is given here; in the data, active means normalized growth mostly below about 0.91 (no sharp cut-off); inconclusive means no clear call, values can overlap the other calls; inactive means mostly above about 0.92. The list shows a part of the results.
Outcome codes: t = active, f = inactive

INSERT INTO results (compound, category_label) VALUES
  ('C=C(C)[C@H]1Cc2c(ccc3c2O[C@@H]2COc4cc(OC)c(OC)cc4[C@@H]2C3=O)O1', 't'),
  ('CC(=O)O[C@H]1CC[C@]2(C)C3CC(=O)[C@]4(C)C(C(C)=O)=CCC4C3CC[C@H]2C1 (some centres undefined)', 'f'),
  ('CC(=O)O[C@@H]1CC[C@]2(C)C3CC[C@]4(C)C(=O)CCC4C3CC[C@H]2C1 (some centres undefined)', 't'),
  ('CC(=O)NS(=O)(=O)c1ccc(NC(=O)c2ccccc2C(=O)O)cc1', 'f');
